Ref: patent US20190359687A1

Biological target: T1, human glycophorin A in the red blood cell membrane (human, UniProt P02724 20-150)
T1 construct: whole, on cells; used for intact RBC, isolated RBC membranes and transfected cells; the assay field tells which; also called GPA; hGPA
T1 sequence (looked up): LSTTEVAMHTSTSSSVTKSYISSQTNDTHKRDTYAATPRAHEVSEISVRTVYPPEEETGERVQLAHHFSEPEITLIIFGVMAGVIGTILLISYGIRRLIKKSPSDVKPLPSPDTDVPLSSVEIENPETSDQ
Assay: FACS, IgG
property label: binding result

| binder | reading |
| --- | --- |
| Hu6C12-9 (antibody, V domains shown, IgG format; VH.1 + Vk.1a) VH: EVQLVQSGAEVKKPGASVKVSCKASGYTFTTYTIHWVRQAPGQGLEWMGYINPSSDYTRYNPKFKDRVTMTTDTSTSTAYMELRSLRSDDTAVYYCARGTRDYWGQGTTVTVSS VL: DIQLTQSPSFLSASVGDRVTITCSAASSVSYIYWYQQKPGKAPKLLIYSTSTLPSGVPSRFSGSGSGTEYTLTISSLQPEDFATYYCHQRNSFPFTFGQGTKLEIK | no binding |
| Hu6C12-1 (antibody, V domains shown, IgG format; VH.1a + Vk.1) VH: EVQLVQSGAEVKKPGASVKVSCKASGYTFTTYTIHWVRQAPGQGLEWMGYINPSSDYTRYNPKFKDRVTMTTDTSTSTAYMELRSLRSDDTAVYYCQRGTRDYWGQGTTVTVSS VL: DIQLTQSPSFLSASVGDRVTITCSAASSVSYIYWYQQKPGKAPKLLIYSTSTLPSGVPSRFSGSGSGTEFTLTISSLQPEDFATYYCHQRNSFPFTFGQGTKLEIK | no binding |
| Hu6C12-17 (antibody, V domains shown, IgG format; VH.1 + Vk.1b) VH: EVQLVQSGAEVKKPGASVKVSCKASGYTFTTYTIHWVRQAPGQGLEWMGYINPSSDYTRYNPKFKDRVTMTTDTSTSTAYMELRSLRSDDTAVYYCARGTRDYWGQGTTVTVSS VL: DIQLTQSPSFLSASVGDRVTITCSAASSVSYIYWFQQKPGKAPKLLIYSTSTLPSGVPSRFSGSGSGTEYTLTISSLQPEDFATYYCHQRNSFPFTFGQGTKLEIK | no binding |
